System: XIP peptide (Xip251-270)
assay method text: small-molecule binders of XIP peptide, primary screen, biochemical, small-molecule microarray, fluorescence 635/667 nm, 0.5 µg/mL protein (AID 1183)
measurement context: small-molecule microarray binding, fluorescence 635 nm; higher = more signal
property label: composite z-score

INSERT INTO assay_data (smiles_record, meas_value) VALUES
  ('C#C[C@H](O[Si](C#Cc1ccc(Oc2ccccc2)cc1)(C(C)C)C(C)C)c1ccccc1', -0.418);

In: Please report the measured composite z-score for C=CCOC(=O)[C@H]1[C@@H]2C(=O)O[C@@H](c3ccccc3)[C@@H](c3ccccc3)N2[C@@H](c2ccc(OCCOC(=O)[C@@H]3C[C@@H]4C(=O)N[C@@H](CC(C)C)C(=O)N4[C@@H]3c3ccc(O)cc3)cc2)[C@]12C(=O)Nc1ccccc12
Out: 0.802

In: Note down composite z-score recorded for C=CCNC(=O)[C@@H]1[C@H]2C(=O)O[C@H](c3ccccc3)[C@H](c3ccccc3)N2[C@H](c2ccccc2OCCO)[C@@]12C(=O)N(C(=O)OCCOC)c1ccccc12
Out: 0.737
